Give measured Pam type for each item. Keep answers brief.
target: hα7-wt nAChR-expressing GH4Cl cells (Homo sapiens, UniProt P36544); construct: expressed in transfected cells; assay: Patch-clamp current recording (whole-cell), potentiation of choline 1 mM response, PAM type; format: cell-based; design: key: Type 0 compounds minimally enhance the effect size of the current elicited by 1 mM choline.; Type 1 compounds enhance the effect size of the current elicited by 1 mM choline but minimally alter the kinetics of the receptor.; Type 2 compounds enhance the effect size of the current elicited by 1 mM choline while reducing the rate and/or the extent of desensitization.; Type 3 compounds enhance the effect size of the current elicited by 1 mM choline. When tested at higher concentrations up to 10 μM they completely inhibit desensitization, in particular a 1 mM choline application of 250 milliseconds.; Type 4 compounds allow for an initial desensitization of the receptor followed by a re-opening of the receptor during agonist application; conditions: patch-clamp current recording, 1 mM choline
Sequence (P36544 23-502): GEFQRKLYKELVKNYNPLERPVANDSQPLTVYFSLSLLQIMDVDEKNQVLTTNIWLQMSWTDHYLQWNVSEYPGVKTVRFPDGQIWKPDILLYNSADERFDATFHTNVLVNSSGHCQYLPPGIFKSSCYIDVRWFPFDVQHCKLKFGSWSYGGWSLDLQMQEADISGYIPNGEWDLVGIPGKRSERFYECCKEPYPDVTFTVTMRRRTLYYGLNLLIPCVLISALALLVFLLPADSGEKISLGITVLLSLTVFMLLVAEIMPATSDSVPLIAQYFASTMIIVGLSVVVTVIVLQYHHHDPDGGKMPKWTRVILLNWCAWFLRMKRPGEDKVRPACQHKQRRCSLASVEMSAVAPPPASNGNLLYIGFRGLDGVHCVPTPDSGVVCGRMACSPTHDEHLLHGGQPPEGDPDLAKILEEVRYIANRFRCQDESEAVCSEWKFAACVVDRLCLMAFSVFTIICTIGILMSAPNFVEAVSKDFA
Simply state the number, no unit and no words.

Note to self: Pam type recorded for CC[C@H](O)Cc1nc(Nc2ccc(F)c(F)c2)nn1-c1ccnc(C)c1 was 2

Short answer for Cc1cc(-n2nc(Nc3cccc(Cl)c3F)nc2CC(=O)NC2CC2)cc(C)n1 : Pam type was 2

Quick note, Pam type for CC[C@H](O)Cc1nc(Nc2ccc(F)c(F)c2)nn1-c1cc(C)nc(C)c1 landed at 2

For reference, reported Pam type for CN(C)C(=O)CCc1nc(Nc2ccc3c(c2)OC(F)(F)O3)nn1-c1ccc2c(c1)OCCO2 stands at 4

Pam type recorded for this compound, Cc1cc(-n2nc(Nc3cccc(Cl)c3F)nc2CC(=O)NCC2CC2)c(C)cn1 , is 1

Data origin: patent US8778974B2
